Biological target: UniProtKB Q06187
Sequence (Q06187 whole entry): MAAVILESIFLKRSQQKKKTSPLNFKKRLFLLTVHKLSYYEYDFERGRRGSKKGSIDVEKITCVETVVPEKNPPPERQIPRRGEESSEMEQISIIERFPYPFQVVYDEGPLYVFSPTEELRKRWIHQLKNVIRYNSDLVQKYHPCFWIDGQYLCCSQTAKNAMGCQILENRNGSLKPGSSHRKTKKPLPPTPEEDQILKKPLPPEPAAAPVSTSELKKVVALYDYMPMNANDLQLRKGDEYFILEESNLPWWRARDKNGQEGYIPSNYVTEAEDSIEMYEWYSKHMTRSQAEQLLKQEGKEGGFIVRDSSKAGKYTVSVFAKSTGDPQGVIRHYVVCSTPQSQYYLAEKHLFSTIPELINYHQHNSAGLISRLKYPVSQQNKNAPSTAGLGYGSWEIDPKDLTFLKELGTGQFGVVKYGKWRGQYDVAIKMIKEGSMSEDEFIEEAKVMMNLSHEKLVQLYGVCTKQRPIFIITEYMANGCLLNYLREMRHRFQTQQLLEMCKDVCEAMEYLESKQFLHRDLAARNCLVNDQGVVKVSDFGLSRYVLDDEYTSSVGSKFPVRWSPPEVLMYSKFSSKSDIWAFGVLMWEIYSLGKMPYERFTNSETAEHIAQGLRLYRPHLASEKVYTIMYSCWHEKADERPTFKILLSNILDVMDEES
Experiment: Btk enzyme activity, IMAP fluorescence polarization assay (Assay Method A)
Parameter EC50: see the listing below.

N#Cc1ccnc(NC(=O)c2ccc(-c3nc(C4CCOC4)n4ccnc(N)c34)cc2)c1 (stereo not drawn)    10 to 100 nM

Reported EC50 ( Nc1nccn2c([C@@H]3CCC[C@H](N)C3)nc(-c3ccc(C(=O)Nc4cc(C(F)(F)F)ccn4)cc3)c12 (relative stereo) ) = 10 to 100 nM

The measured EC50 associated with Nc1nccn2c1c(-c1ccc(C(=O)Nc3ccccn3)c(Cl)c1)nc2[C@H]1CC[C@H](O)CC1 reads 10 to 100 nM

EC50 in this record for CCOC(=O)c1cnc(N)c2c(-c3ccc(C(=O)Nc4cc(C(F)(F)F)ccn4)cc3)nc([C@@H]3CCCN(C(=O)C4(C)COC4)C3)n12 : < 10 nM

EC50 reported for this compound CO[C@@H](C)C(=O)N1CCC[C@@H](c2nc(-c3ccc(C(=O)Nc4ccccn4)cc3)c3c(N)nccn23)C1 : 10 to 100 nM

// EC50 lookup, compound = CC(C)CNC(=O)C(=O)N1CCC[C@@H](c2nc(-c3ccc(C(=O)Nc4cc(C5CC5)ccn4)cc3)c3c(N)nccn23)C1 , result: 10 to 100 nM
